Method: Pharmacokinetic assay in mice
Type: in vivo, male ICR mice
Experimental context: male, ICR, mouse, plasma; mice, oral intragastric administration, 10 mg/kg
Quantity measured: Cmax (ng/mL)
Provide only the numeric value, understood in ng/mL.

Reported Cmax of Cc1cnc(-c2cc(O[C@@H](C)[C@@H](C)O)cc(C(=O)N[C@H](C)c3cnc(C(F)(F)F)nc3)c2F)s1 [Compound of formula I] : 3380

Below: the item to evaluate.
Record Cc1cnc(-c2cc(O[C@@H]3CCOC3)cc(C(=O)N[C@H](C)c3cnc(C(F)(F)F)nc3)c2)s1 [Control compound 1, reference compound] . Reported Cmax: 1250

----------
Method: Dynamic solubility experiment at 37° C.
Type: physicochemical
Experimental context: H2O, 24 h
Where a name gives a salt, the structure may show the parent alone.
Quantity measured: S: solubility (µg/mL)
A number alone suffices; assume µg/mL.

As a guide, the following entries are already answered.
Query Cc1cnc(-c2cc(O[C@@H](C)[C@@H](C)O)cc(C(=O)N[C@H](C)c3cnc(C(F)(F)F)nc3)c2F)s1 [Crystalline form A of hydrochloride] yields S: solubility of 4

Data point: Cc1cnc(-c2cc(O[C@@H](C)[C@@H](C)O)cc(C(=O)N[C@H](C)c3cnc(C(F)(F)F)nc3)c2F)s1 [Crystalline form A of p-toluenesulfonate] ; S: solubility = 5

Record summary for Cc1cnc(-c2cc(O[C@@H](C)[C@@H](C)O)cc(C(=O)N[C@H](C)c3cnc(C(F)(F)F)nc3)c2F)s1 [Crystalline form A of maleate] : reported S: solubility = 8

Consider the record given below.
// recorded S: solubility for Cc1cnc(-c2cc(O[C@@H](C)[C@@H](C)O)cc(C(=O)N[C@H](C)c3cnc(C(F)(F)F)nc3)c2F)s1 [Free base crystalline form A] : 3
